Source of measurements: patent US9868746B2

molecular target: mAChR M4 (Homo sapiens); construct: expressed in transfected cells; host or cells: CHO-K1 cells stably transfected with M4 cDNA and chimeric G-protein Gqi5; experiment: mAChR M4 cell-based functional assay (calcium mobilization, potentiation of EC20 acetylcholine response); conditions: mAChR M4 cell-based functional assay; >10,000 estimated for low potency compounds without plateau; read-out: EC50
// pEC50 lookup, one value per entry
// returns pEC50 (minus log10 of molar concentration), number only

Record excerpt, results attached:
Molecule: Cc1nnc2sc(C(=O)NCc3cccc(-c4ccccc4)c3)c(N)c2c1C
pEC50: 6.37
//
Molecule: Cc1ccc(OC(=O)N2CC(NC(=O)c3sc4nnc(C)c(C)c4c3N)C2)cc1
pEC50: 8.05
//
Molecule: Cc1nnc2sc(C(=O)NCCNC(=O)Oc3ccccc3)c(N)c2c1C [Example B354]
pEC50: 5.70
//
Molecule: Cc1nnc2sc(C(=O)N3CCC(NC(=O)C4CC4c4ccccc4)C3)c(N)c2c1C (stereo not drawn)
pEC50: 5.85
//
Molecule: [2H]C([2H])(NC(=O)c1sc2nnc(C)c(C)c2c1N)c1ccc(OC)cc1
pEC50: 7.49

Alright, here's another molecule for you.
Looking up `Cc1nnc2sc(C(=O)NCc3cc(F)c(F)cc3F)c(N)c2c1C` , I found its pEC50 recorded as 7.35

---

Target: mAChR M4 (Homo sapiens)
Construct: expressed in transfected cells; host or cells: CHO-K1 cells stably transfected with M4 cDNA and chimeric G-protein Gqi5
Sequence (P08173 1-479): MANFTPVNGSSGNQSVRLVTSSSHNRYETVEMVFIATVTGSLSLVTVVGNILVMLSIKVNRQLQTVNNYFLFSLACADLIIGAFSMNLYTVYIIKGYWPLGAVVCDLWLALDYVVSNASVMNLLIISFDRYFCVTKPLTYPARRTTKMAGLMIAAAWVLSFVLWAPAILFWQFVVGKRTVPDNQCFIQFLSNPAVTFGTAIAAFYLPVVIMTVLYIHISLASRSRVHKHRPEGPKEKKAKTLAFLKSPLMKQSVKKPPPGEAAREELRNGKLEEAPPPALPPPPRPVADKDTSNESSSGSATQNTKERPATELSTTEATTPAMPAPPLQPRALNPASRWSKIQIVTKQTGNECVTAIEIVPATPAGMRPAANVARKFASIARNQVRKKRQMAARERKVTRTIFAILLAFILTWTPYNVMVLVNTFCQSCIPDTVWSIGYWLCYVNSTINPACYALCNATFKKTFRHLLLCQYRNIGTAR
Assay: mAChR M4 cell-based functional assay (calcium mobilization, potentiation of EC20 acetylcholine response)
Conditions: % ACh maximum at 30 μM
Measured parameter: Emax at 30 µM (%)
Entry rule: numbers only, all in %.

Record excerpt, results attached:
Compound: Cc1nnc2sc(C(=O)NC3CN(C(=O)c4ccc(F)c(F)c4)C3)c(N)c2c1C
Measured parameter: Emax at 30 µM
Recorded measurement: 76
--
Compound: Cc1nnc2sc(C(=O)NC3CN(C(=O)Oc4ccc(Cl)cc4)C3)c(N)c2c1C
Measured parameter: Emax at 30 µM
Recorded measurement: 58
--
Compound: Cc1nnc2sc(C(=O)N3CC(NS(=O)(=O)c4cn(C)cn4)C3)c(N)c2c1C
Measured parameter: Emax at 30 µM
Recorded measurement: 51
--
Compound: Cc1nnc2sc(C(=O)N3CC(NC(=O)Oc4ccccc4)C3)c(N)c2c1C
Measured parameter: Emax at 30 µM
Recorded measurement: 65
--
Compound: Nc1c(C(=O)NCc2ccc3c(c2)OCO3)sc2nnc3c(c12)CCCC3
Measured parameter: Emax at 30 µM
Recorded measurement: 49
--
Compound: Cc1nnc2sc(C(=O)NCc3ccc(S(=O)(=O)C(F)(F)F)cc3)c(N)c2c1C
Measured parameter: Emax at 30 µM
Recorded measurement: 62
--
Compound: Cc1nnc2sc(C(=O)NCCNC(=O)c3ccncc3)c(N)c2c1C
Measured parameter: Emax at 30 µM
Recorded measurement: 49
--
Compound: Cc1nnc2sc(C(=O)N3CC(S(C)(=O)=O)C3)c(N)c2c1C
Measured parameter: Emax at 30 µM
Recorded measurement: 54

Looking up `Cc1cc(-c2ccc(CNC(=O)c3sc4nnc(C)c(C)c4c3N)cc2)cnc1F` , I found its Emax at 30 µM recorded as 63

Looking up Cc1nnc2sc(C(=O)NC3CCN(C(=O)Cc4ccccc4)C3)c(N)c2c1C (stereo not drawn) , I found its Emax at 30 µM recorded as 72

Looking up `COc1ccc(SC2CN(C(=O)c3sc4nnc(C)c(C)c4c3N)C2)cc1` , I found its Emax at 30 µM recorded as 61

---

target: mAChR M4 (Homo sapiens, UniProt P08173); construct: expressed in transfected cells; host or cells: CHO-K1 cells stably transfected with M4 cDNA and chimeric G-protein Gqi5; assay: mAChR M4 cell-based functional assay (calcium mobilization, potentiation of EC20 acetylcholine response); settings: mAChR M4 cell-based functional assay; >10,000 estimated for low potency compounds without plateau; read-out: EC50
// log10(EC50) lookup, one value per entry
In our notation, the value equals log10 of EC50 in nM.

Record excerpt, results attached:
Molecule: Cc1ccccc1OC(=O)N1CC(NC(=O)c2sc3nnc(C)c(C)c3c2N)C1
Measured parameter: log10(EC50)
Recorded measurement: 1.04
//
Molecule: Cc1cc(F)ncc1-c1ccc(CNC(=O)c2sc3nnc(C)c(C)c3c2N)cc1
Measured parameter: log10(EC50)
Recorded measurement: 2.52
//
Molecule: Cc1nnc2sc(C(=O)N3CCC4(CN(C(=O)OC(C)(C)C)C4)C3)c(N)c2c1C
Measured parameter: log10(EC50)
Recorded measurement: 3.67

Looking up `Nc1c(C(=O)NCc2ccc(S(=O)(=O)CF)cc2)sc2nnc3c(c12)CCCC3` , I found its log10(EC50) recorded as 1.94

Looking up Cc1nnc2sc(C(=O)NC3CCN(c4ccccc4C(F)(F)F)C3)c(N)c2c1C (stereo not shown) , I found its log10(EC50) recorded as 2.18

Looking up `Cc1nnc2sc(C(=O)NCc3ccc(CS(C)(=O)=O)cc3)c(N)c2c1C` , I found its log10(EC50) recorded as 2.23

Looking up `COc1ccc(S(=O)(=O)N2CC(NC(=O)c3sc4nnc(C)c(C)c4c3N)C2)cc1` , I found its log10(EC50) recorded as 2.15

Looking up `Nc1c(C(=O)NCc2ccc3c(c2)OCO3)sc2nnccc12` , I found its log10(EC50) recorded as 3.45

---

target: mAChR M4 (Homo sapiens); construct: expressed in transfected cells; host or cells: CHO-K1 cells stably transfected with M4 cDNA and chimeric G-protein Gqi5; test: mAChR M4 cell-based functional assay (calcium mobilization, potentiation of EC20 acetylcholine response); details: % ACh maximum at 30 μM
Measured parameter: Emax at 30 µM
Answer as a quantity: numeral, then unit.

Record excerpt, results attached:
Compound: Cc1nnc2sc(C(=O)NC3CN(C(=O)Oc4ccc(C(C)C)cc4)C3)c(N)c2c1C
Recorded measurement: 72%

Compound: CCCOC(=O)NC(CCl)CNC(=O)c1sc2nnc(C)c(C)c2c1N (centres unmarked)
Recorded measurement: 32%

Compound: COc1ccccc1C1(OC)CN(C(=O)c2sc3nnc(C)c(C)c3c2N)C1
Recorded measurement: 43%

Compound: Cc1nnc2sc(C(=O)NCc3c(F)ccc(F)c3Cl)c(N)c2c1C
Recorded measurement: 58%

Alright, here's another compound for you.
Looking up `Cc1nnc2sc(C(=O)NC3CN(c4cccnc4)C3)c(N)c2c1C` , I found its Emax at 30 µM recorded as 67%

---

target: mAChR M4 (Homo sapiens, UniProt P08173); construct: expressed in transfected cells; host or cells: CHO-K1 cells stably transfected with M4 cDNA and chimeric G-protein Gqi5; experiment: mAChR M4 cell-based functional assay (calcium mobilization, potentiation of EC20 acetylcholine response); conditions: % ACh maximum at 30 μM
// Emax at 30 µM lookup, one value per entry
Entry rule: numbers only, all in %.

Compound: Cc1nnc2sc(C(=O)NC3CCN(C(=O)OC(C)C)C3)c(N)c2c1C (centres unmarked)
Emax at 30 µM (%): 50
--
Compound: Cc1nnc2sc(C(=O)NCc3ccc(S(=O)(=O)C4CC4)cc3)c(N)c2c1C
Emax at 30 µM (%): 53
--
Compound: CC(=O)N1CC2CN(C(=O)c3sc4nnc(C)c(C)c4c3N)CC2C1 (centres unmarked)
Emax at 30 µM (%): 54
--
Compound: Cc1nnc2sc(C(=O)NC3CN(C(=O)Oc4cc(F)cc(F)c4)C3)c(N)c2c1C
Emax at 30 µM (%): 61
--
Compound: Cc1nnc2sc(C(=O)NC3CC3c3ccc(S(C)(=O)=O)cc3)c(N)c2c1C (centres unmarked)
Emax at 30 µM (%): 78

Looking up `Cc1nnc2sc(C(=O)NC3CN(C(=O)c4ccccn4)C3)c(N)c2c1C` , I found its Emax at 30 µM recorded as 92

Looking up `Cc1nnc2sc(C(=O)NC3CN(c4ccccc4)C3)c(N)c2c1C` , I found its Emax at 30 µM recorded as 62

Looking up Cc1nnc2sc(C(=O)NCc3ccc([S+]([O-])C(F)(F)F)cc3)c(N)c2c1C (centres unmarked) , I found its Emax at 30 µM recorded as 66
